So I've got HepSE_hepatic failure readings for Hepatotoxicity, take a look.
The reply should be a number, written without any unit.

molecule="CNC1(c2ccccc2Cl)CCCCC1=O (centres undefined)" numeric_value=0
molecule="CC(N)Cc1c[nH]c2ccccc12 (centres undefined)" numeric_value=0

# context switch: different molecule, same HepSE_hepatic failure
Request: Can you look up HepSE_hepatic failure on Hepatotoxicity for CN1C2CCCC1CC(NC(=O)c1nn(C)c3ccccc13)C2 (centres undefined) ?
Result: 0

----------
# Tested on: Hepatotoxicity
Measured HepSE_liver function tests abnormal, listed per entry.
Respond numerically, and do not add a unit to the figure.

molecule="CC(CCc1ccccc1)NCC(O)c1ccc(O)c(C(N)=O)c1 (configuration not stated)" assayed_system=Hepatotoxicity numeric_value=0
molecule=CN[C@H](CC(C)C)C(=O)N[C@H]1C(=O)N[C@@H](CC(N)=O)C(=O)N[C@H]2C(=O)N[C@H]3C(=O)N[C@H](C(=O)N[C@H](C(=O)O)c4cc(O)cc(O)c4-c4cc3ccc4O)[C@H](O)c3ccc(c(Cl)c3)Oc3cc2cc(c3O[C@@H]2O[C@H](CO)[C@@H](O)[C@H](O)[C@H]2O[C@H]2C[C@](C)(N)[C@H](O)[C@H](C)O2)Oc2ccc(cc2Cl)[C@H]1O assayed_system=Hepatotoxicity numeric_value=0
molecule="CC(C)Cc1ccc(C(C)C(=O)O)cc1 (configuration not stated)" assayed_system=Hepatotoxicity numeric_value=1

Request: For the molecule shown here, N=C(N)NC(=O)Cc1c(Cl)cccc1Cl , give the reported HepSE_liver function tests abnormal.
Result: 1

Request: Find the recorded HepSE_liver function tests abnormal belonging to CC1(C)S[C@@H]2[C@H](NC(=O)C(C(=O)O)c3ccccc3)C(=O)N2[C@H]1C(=O)O (some centres not stated) and report it.
Result: 0

Request: Fill in: HepSE_liver function tests abnormal of CC(=O)CCCCn1c(=O)c2c(ncn2C)n(C)c1=O is ___
Result: 0

Request: Quick one: HepSE_liver function tests abnormal for C[C@]12CC[C@H]3[C@@H](CCC4=CC(=O)CC[C@@]43C)[C@@H]1CC[C@@H]2O ?
Result: 1

Request: Dear colleague, I am looking for the recorded HepSE_liver function tests abnormal of the following molecule: CC12CC3CC(C)(C1)CC(N)(C3)C2 [MEMANTINE]
Result: 0

Request: Can you share its HepSE_liver function tests abnormal? I mean this molecule: CC(=O)Nc1nnc(S(N)(=O)=O)s1 [ACETAZOLAMIDE]
Result: 0

Request: Fill blank: measured HepSE_liver function tests abnormal of the molecule C[C@]12C/C(=C/O)C(=O)C[C@@H]1CC[C@@H]1[C@@H]2CC[C@@]2(C)[C@H]1CC[C@]2(C)O is ____.
Result: 0

Request: Quick one: HepSE_liver function tests abnormal for CCn1cc(C(=O)O)c(=O)c2ccc(C)nc21 ?
Result: 0

Request: Could you tell me which HepSE_liver function tests abnormal is on file for CN1CC(=O)N2[C@H](c3ccc4c(c3)OCO4)c3[nH]c4ccccc4c3C[C@@H]2C1=O ?
Result: 1
